// MIC lookup, one value per entry
tested on: Klebsiella pneumoniae; assay: Antibacterial activity against Carbapenem-resistant Klebsiella pneumoniae FADD1-KP032 clinical isolates assessed as reduction in bacterial growth by broth microdilution method; assay type: functional
Give the quantity in µg/mL, number only.

For orientation, consider the following solved cases.
# item smiles, MIC (µg/mL)
data = [
    ("CC[C@H](C)CCCCC(=O)N[C@@H](CCN)C(=O)N[C@H](C(=O)N[C@@H](CCN)C(=O)N[C@H]1CCNC(=O)[C@H](C(C)(C)O)NC(=O)[C@H](CCN)NC(=O)[C@H](CCN)NC(=O)[C@H](CC(C)C)NC(=O)[C@@H](Cc2ccccc2)NC(=O)[C@H](CCN)NC1=O)[C@@H](C)O", 2),
    ("CC[C@H](C)CCCCC(=O)N[C@@H](CCN)C(=O)N[C@H](C(=O)N[C@@H](CCN)C(=O)N[C@H]1CCNC(=O)[C@H](Cc2ccc(O)cc2)NC(=O)[C@H](CCN)NC(=O)[C@H](CCN)NC(=O)[C@H](CC(C)C)NC(=O)[C@@H](Cc2ccccc2)NC(=O)[C@H](CCN)NC1=O)[C@@H](C)O", 4),
]

// switching to the query compound
Which MIC value is on record for `CC[C@H](C)CCCCC(=O)N[C@@H](CCN)C(=O)N[C@H](C(=O)N[C@@H](CCN)C(=O)N[C@H]1CCNC(=O)[C@H](CO)NC(=O)[C@H](CCN)NC(=O)[C@H](CCN)NC(=O)[C@H](CC(C)C)NC(=O)[C@@H](Cc2ccccc2)NC(=O)[C@H](CCN)NC1=O)[C@@H](C)O` ?
0.25

###

test system: Acinetobacter baumannii; test: Antibacterial activity against polymyxin-susceptible Acinetobacter baumannii ATCC 19606 clinical isolates assessed as reduction in bacterial growth by broth microdilution method; type: functional
readout kind: MIC (µg/mL)
Form entry: value (µg/mL) — number only.

Example cases with answers are listed next.
# molecule, target or test system, measurement unit, assay result
rows = [
    ("CC[C@H](C)CCCCC(=O)N[C@@H](CCN)C(=O)N[C@H](C(=O)N[C@@H](CCN)C(=O)N[C@H]1CCNC(=O)[C@H](CC)NC(=O)[C@H](CCN)NC(=O)[C@H](CCN)NC(=O)[C@H](CC(C)C)NC(=O)[C@@H](Cc2ccccc2)NC(=O)[C@H](CCN)NC1=O)[C@@H](C)O", "Acinetobacter baumannii", "µg/mL", 2),
    ("CC[C@H](C)CCCCC(=O)N[C@@H](CCN)C(=O)N[C@H](C(=O)N[C@@H](CCN)C(=O)N[C@H]1CCNC(=O)[C@H](C(C)N=[N+]=[N-])NC(=O)[C@H](CCN)NC(=O)[C@H](CCN)NC(=O)[C@H](CC(C)C)NC(=O)[C@@H](Cc2ccccc2)NC(=O)[C@H](CCN)NC1=O)[C@@H](C)O (some centres not stated)", "Acinetobacter baumannii", "µg/mL", 2),
    ("CC[C@H](C)CCCCC(=O)N[C@@H](CCN)C(=O)N[C@H](C(=O)N[C@@H](CCN)C(=O)N[C@H]1CCNC(=O)[C@H](CCSC)NC(=O)[C@H](CCN)NC(=O)[C@H](CCN)NC(=O)[C@H](CC(C)C)NC(=O)[C@@H](Cc2ccccc2)NC(=O)[C@H](CCN)NC1=O)[C@@H](C)O", "Acinetobacter baumannii", "µg/mL", 4),
    ("CC[C@H](C)CCCCC(=O)N[C@@H](CCN)C(=O)N[C@H](C(=O)N[C@@H](CCN)C(=O)N[C@H]1CCNC(=O)[C@H](C)NC(=O)[C@H](CCN)NC(=O)[C@H](CCN)NC(=O)[C@H](CC(C)C)NC(=O)[C@@H](Cc2ccccc2)NC(=O)[C@H](CCN)NC1=O)[C@@H](C)O", "Acinetobacter baumannii", "µg/mL", 1),
    ("CC[C@H](C)CCCCC(=O)N[C@@H](CCN)C(=O)N[C@H](C(=O)N[C@@H](CCN)C(=O)N[C@H]1CCNC(=O)[C@H](CCCNC(=N)N)NC(=O)[C@H](CCN)NC(=O)[C@H](CCN)NC(=O)[C@H](CC(C)C)NC(=O)[C@@H](Cc2ccccc2)NC(=O)[C@H](CCN)NC1=O)[C@@H](C)O", "Acinetobacter baumannii", "µg/mL", 8),
]

Data request, read-out MIC, for `CC[C@H](C)CCCCC(=O)N[C@@H](CCN)C(=O)N[C@H](C(=O)N[C@@H](CCN)C(=O)N[C@H]1CCNC(=O)[C@H]([C@@H](C)O)NC(=O)[C@H](CCN)NC(=O)[C@H](CCN)NC(=O)[C@H](CC(C)C)NC(=O)[C@@H](Cc2ccccc2)NC(=O)[C@H](CCN)NC1=O)[C@@H](C)O`
1
